Test system: granulation tissue formation caused by implantation of cotton pellets
procedure text: Granuloma formation test (local cotton pellet granuloma assay)
Format: in vivo, rat
measurement parameters: dose causing 50% inhibition of granulation tissue weight
Recorded ED50 values for a group of molecules are listed next.
Please format your answer as a value with the unit trailing.

[
  {
    "query smiles": "CC(C)OC(=O)O[C@]1(C(=O)OCCl)CC[C@H]2[C@@H]3CCC4=CC(=O)C=C[C@]4(C)[C@H]3[C@@H](O)C[C@@]21C",
    "reported measurement": "119 μg/pellet"
  },
  {
    "query smiles": "CCOC(=O)O[C@]1(C(=O)OCCl)[C@@H](C)C[C@H]2[C@@H]3CCC4=CC(=O)C=C[C@]4(C)[C@@]3(F)[C@@H](O)C[C@@]21C",
    "reported measurement": "6.45 μg/pellet"
  }
]

Now, please, on to the next molecule.
Problem: # ED50 lookup, item CC(C)OC(=O)O[C@]1(C(=O)OCCl)[C@@H](C)C[C@H]2[C@@H]3CCC4=CC(=O)C=C[C@]4(C)[C@@]3(F)[C@@H](O)C[C@@]21C
Result: 0.97 μg/pellet

====

Tested on: thymus weight in rats
procedure text: Thymus inhibition testing (subcutaneous administration)
Assay type: in vivo, rat
measurement parameters: Table X, betamethasone 17-valerate = 1
Procedure: Several further studies were undertaken to determine the effects of selected compounds of the invention on thymi weights in rats when the drugs were systemically administered. In each of these studies, male Sprague-Dawley rats were used. […] On the fifth day (48 hours following the last treatment), the animals were sacrificed and the thymi weights were recorded. […] It is evident that the higher the inhibition of thymus activity at a given dose, the more toxic the compound is.
Recorded Relative Potency (TED50) values for a group of compounds are listed next.
Reply: number alone, nothing else.

# count of solved cases: 2
[
  {
    "compound": "CC(C)OC(=O)O[C@]1(C(=O)OCCl)CC[C@H]2[C@@H]3CCC4=CC(=O)C=C[C@]4(C)[C@H]3[C@@H](O)C[C@@]21C",
    "Relative Potency (TED50)": 0.02
  },
  {
    "compound": "CCCCC(=O)O[C@]1(C(=O)CO)[C@@H](C)C[C@H]2[C@@H]3CCC4=CC(=O)C=C[C@]4(C)[C@@]3(F)[C@@H](O)C[C@@]21C [Betamethasone 17-valerate, reference compound]",
    "Relative Potency (TED50)": 1
  }
]

Problem: // map CC(C)OC(=O)O[C@]1(C(=O)OCCl)CC[C@H]2[C@@H]3CCC4=CC(=O)CC[C@]4(C)[C@H]3[C@@H](O)C[C@@]21C to recorded Relative Potency (TED50) (system: thymus weight in rats)
Result: 0.01

====

Test system: granulation tissue formation caused by implantation of cotton pellets
procedure text: Granuloma formation test (local cotton pellet granuloma assay)
Format: in vivo, rat
measurement parameters: chloromethyl 11β-hydroxy-17α-isopropoxycarbonyloxyandrost-4-en-3-one-17β-carboxylate = 1
property label: Relative potency (ED60)
Reply: number alone, nothing else.

[
  {
    "query smiles": "CCOC(=O)O[C@]1(C(=O)OCCl)[C@H](C)C[C@H]2[C@@H]3CCC4=CC(=O)C=C[C@]4(C)[C@@]3(F)[C@@H](O)C[C@@]21C",
    "Relative potency (ED60)": 283
  },
  {
    "query smiles": "CCOC(=O)O[C@]1(C(=O)OCCl)[C@@H](C)C[C@H]2[C@@H]3CCC4=CC(=O)C=C[C@]4(C)[C@@]3(F)[C@@H](O)C[C@@]21C",
    "Relative potency (ED60)": 38
  },
  {
    "query smiles": "CCCOC(=O)O[C@]1(C(=O)OCCl)[C@H](C)C[C@H]2[C@@H]3CCC4=CC(=O)C=C[C@]4(C)[C@@]3(F)[C@@H](O)C[C@@]21C",
    "Relative potency (ED60)": 277
  },
  {
    "query smiles": "CC(C)OC(=O)O[C@]1(C(=O)OCCl)CC[C@H]2[C@@H]3CCC4=CC(=O)C=C[C@]4(C)[C@H]3[C@@H](O)C[C@@]21C",
    "Relative potency (ED60)": 2.3
  },
  {
    "query smiles": "CC(C)OC(=O)O[C@]1(C(=O)OCCl)[C@@H](C)C[C@H]2[C@@H]3CCC4=CC(=O)C=C[C@]4(C)[C@@]3(F)[C@@H](O)C[C@@]21C",
    "Relative potency (ED60)": 184
  }
]

Problem: # Relative potency (ED60) lookup, item CC(C)OC(=O)O[C@]1(C(=O)OCCl)CC[C@H]2[C@@H]3CCC4=CC(=O)CC[C@]4(C)[C@H]3[C@@H](O)C[C@@]21C
Result: 1

====

Test system: thymus weight in rats
procedure text: Thymus inhibition testing (subcutaneous administration)
Assay type: in vivo, rat
measurement parameters: Table XII, hydrocortisone 17-butyrate = 1
Recorded Relative Potency (TED40) values for a group of compounds are listed next.

[
  {
    "compound": "COC(=O)O[C@]1(C(=O)OCCl)[C@H](C)C[C@H]2[C@@H]3CCC4=CC(=O)C=C[C@]4(C)[C@@]3(F)[C@@H](O)C[C@@]21C",
    "Relative Potency (TED40)": "1/36"
  },
  {
    "compound": "CCCCC(=O)O[C@]1(C(=O)CO)[C@@H](C)C[C@H]2[C@@H]3CCC4=CC(=O)C=C[C@]4(C)[C@@]3(F)[C@@H](O)C[C@@]21C [Betamethasone 17-valerate, reference compound]",
    "Relative Potency (TED40)": 4
  },
  {
    "compound": "CC(C)OC(=O)O[C@]1(C(=O)OCCl)CC[C@H]2[C@@H]3CCC4=CC(=O)C=C[C@]4(C)[C@H]3[C@@H](O)C[C@@]21C",
    "Relative Potency (TED40)": "1/12"
  },
  {
    "compound": "CC(C)OC(=O)O[C@]1(C(=O)OCCl)CC[C@H]2[C@@H]3CCC4=CC(=O)CC[C@]4(C)[C@H]3[C@@H](O)C[C@@]21C",
    "Relative Potency (TED40)": "1/24"
  }
]

Now, please, on to the next compound.
Problem: # Relative Potency (TED40) lookup, item CCOC(=O)O[C@]1(C(=O)OCCl)[C@H](C)C[C@H]2[C@@H]3CCC4=CC(=O)C=C[C@]4(C)[C@@]3(F)[C@@H](O)C[C@@]21C
Result: 1/40

====

Test system: granulation tissue formation caused by implantation of cotton pellets
procedure text: Granuloma formation test (local cotton pellet granuloma assay)
Format: in vivo, rat
measurement parameters: Table V-a, 10 μg/pellet
Recorded Granulation tissue Dry wt. Inhibition values for a group of molecules are listed next.
Kindly answer with a numeric value in %, unit omitted.

# count of solved cases: 3
[
  {
    "molecule": "CCCOC(=O)O[C@]1(C(=O)OCCl)[C@H](C)C[C@H]2[C@@H]3CCC4=CC(=O)C=C[C@]4(C)[C@@]3(F)[C@@H](O)C[C@@]21C",
    "unit abbrev": "%",
    "Granulation tissue Dry wt. Inhibition": 64.4
  },
  {
    "molecule": "CCCCC(=O)O[C@]1(C(=O)CO)[C@@H](C)C[C@H]2[C@@H]3CCC4=CC(=O)C=C[C@]4(C)[C@@]3(F)[C@@H](O)C[C@@]21C [Betamethasone 17-valerate, reference compound]",
    "unit abbrev": "%",
    "Granulation tissue Dry wt. Inhibition": 51.9
  },
  {
    "molecule": "CCOC(=O)O[C@]1(C(=O)OCCl)[C@@H](C)C[C@H]2[C@@H]3CCC4=CC(=O)C=C[C@]4(C)[C@@]3(F)[C@@H](O)C[C@@]21C",
    "unit abbrev": "%",
    "Granulation tissue Dry wt. Inhibition": 56.6
  }
]

Now, please, on to the next molecule.
Problem: # Granulation tissue Dry wt. Inhibition lookup, item CCC(=O)O[C@]1(C(=O)CCl)[C@@H](C)C[C@H]2[C@@H]3CCC4=CC(=O)C=C[C@]4(C)[C@@]3(F)[C@@H](O)C[C@@]21C [Clobetasol 17-propionate, reference compound]
Result: 52.7

====

Test system: granulation tissue formation caused by implantation of cotton pellets
procedure text: Granuloma formation test (local cotton pellet granuloma assay)
Type: in vivo, rat
measurement parameters: Table IV, 300 μg/pellet
Recorded Body wt. gain values for a group of molecules are listed next.
Kindly answer with a numeric value in g, unit omitted.

# count of solved cases: 3
[
  {
    "molecule": "CC(C)OC(=O)O[C@]1(C(=O)OCCl)CC[C@H]2[C@@H]3CCC4=CC(=O)C=C[C@]4(C)[C@H]3[C@@H](O)C[C@@]21C",
    "unit abbrev": "g",
    "Body wt. gain": 34.4
  },
  {
    "molecule": "CCCCC(=O)O[C@]1(C(=O)CO)[C@@H](C)C[C@H]2[C@@H]3CCC4=CC(=O)C=C[C@]4(C)[C@@]3(F)[C@@H](O)C[C@@]21C [Betamethasone 17-valerate, reference compound]",
    "unit abbrev": "g",
    "Body wt. gain": 22.3
  },
  {
    "molecule": "CCCC(=O)O[C@]1(C(=O)CO)CC[C@H]2[C@@H]3CCC4=CC(=O)CC[C@]4(C)[C@H]3[C@@H](O)C[C@@]21C [Hydrocortisone 17-butyrate, reference compound]",
    "unit abbrev": "g",
    "Body wt. gain": 26.2
  }
]

Now, please, on to the next molecule.
Problem: # Body wt. gain lookup, item CC(C)OC(=O)O[C@]1(C(=O)OCCl)CC[C@H]2[C@@H]3CCC4=CC(=O)CC[C@]4(C)[C@H]3[C@@H](O)C[C@@]21C
Result: 33.9

Taken from patent US6610675B1.
